System: HCV pseudoparticles
Measurement Description: HCV pseudoparticle infection assay (luciferase reporter, Huh7 cells)
Type: cell-based, HCV (genotype 1b E1 and E2 envelope)
Test Parameters: Hepatitis C virus, genotype 1b, Huh-7, 48 h, HCV pseudoparticles (genotype 1b), luciferase activity 2 days after infection, class
Readout Type: EC50

The measured EC50 that CC(C)S(=O)(=O)NC(=O)CCNC(=O)CCCNC(=O)c1ccc(Nc2nc(NC3(c4ccc(Cl)cc4)CC3)nc(OCC(F)(F)F)n2)cc1 showed for HCV pseudoparticles is 0.5 to 100 nM

Parameters: items (list). Returns: EC50 for each item.
1. CN(C)CC1(S(=O)(=O)NC(=O)c2ccc(Nc3nc(OCC(F)(F)F)nc(N4CCN(C(=O)c5ccccc5F)CC4)n3)cc2)CC1
2. Cn1cnc(C[C@H](NC(=O)c2ccc(Nc3nc(NC4(c5ccc(Cl)cc5)CC4)nc(OCC(F)(F)F)n3)cc2)C(=O)N[C@]2(C(=O)NS(=O)(=O)C3CC3)C[C@H]2C2CC2)c1

["1000 to 5000 nM", "0.5 to 100 nM"]

Parameters: items (list). Returns: EC50 for each item.
1. O=C(NCC1(CN2CCCC2)CC1)c1ccc(Nc2nc(NC3(c4ccc(C(=O)NS(=O)(=O)C5CC5)cc4)CC3)nc(OCC(F)(F)F)n2)cc1
2. CC(C)N(C(=O)C1(CNC(=O)c2ccc(Nc3nc(NC4(c5ccc(Cl)cc5)CC4)nc(OCC(F)(F)F)n3)cc2)CC1)S(N)(=O)=O
3. CN(C)CC1(S(=O)(=O)NC(=O)c2ccc(Nc3nc(NC4(c5ccc(Cl)cc5)CC4)nc(OCC(F)(F)F)n3)cc2)CC1

["0.5 to 100 nM", "0.5 to 100 nM", "0.5 to 100 nM"]

* * *

Exercise: state measured EC50 for each of the compounds provided.
System: HCV pseudoparticles
Measurement Description: HCV pseudoparticle infection assay (luciferase reporter, Huh7 cells)
Assay type: cell-based, HCV (genotype 1b E1 and E2 envelope)
Test Parameters: Hepatitis C virus, genotype 1b, Huh-7, 48 h, HCV pseudoparticles (genotype 1b), luciferase activity 2 days after infection, class

For reference, reported EC50 for CCN(CC)CCS(=O)(=O)NC(=O)c1ccc(Nc2nc(NC3(c4ccc(Cl)cc4)CC3)nc(OCC(F)(F)F)n2)cc1 stands at 0.0005 to 0.1 µM

For reference, reported EC50 for CCC1(S(=O)(=O)NC(=O)C2(CNC(=O)c3ccc(Nc4nc(NC5(c6ccc(Cl)cc6)CC5)nc(OCC(F)(F)F)n4)cc3)CC2)CC1 stands at 0.0005 to 0.1 µM

For reference, reported EC50 for C=C[C@@H]1C[C@]1(NC(=O)CCCCNC(=O)c1ccc(Nc2nc(NC3(c4ccc(Cl)cc4)CC3)nc(OCC(F)(F)F)n2)cc1)C(=O)NS(=O)(=O)C(C)(C)C stands at 0.0005 to 0.1 µM

For reference, reported EC50 for CC(C)NCC1(C(=O)NS(=O)(=O)c2ccc(Nc3nc(NC4(c5ccc(Cl)cc5)CC4)nc(OCC(F)(F)F)n3)cc2)CC1 stands at 1 to 5 µM

For reference, reported EC50 for O=C(NS(=O)(=O)CCN1CCOCC1)c1ccc(Nc2nc(NC3(c4ccc(Cl)cc4)CC3)nc(OCC(F)(F)F)n2)cc1 stands at 0.0005 to 0.1 µM

Parameters: items (list). Returns: EC50 for each item.
1. CC(C)S(=O)(=O)NC(=O)c1ccc(Nc2nc(NC3(c4ccc(Cl)cc4)CC3)nc(OCC(F)(F)F)n2)cc1
2. CN(CC1(S(=O)(=O)NC(=O)c2ccc(Nc3nc(NC4(c5ccc(Cl)cc5)CC4)nc(OCC(F)(F)F)n3)cc2)CC1)c1ccccc1
3. CN(C)CC1(C(=O)NS(=O)(=O)c2ccc(Nc3nc(NC4(c5ccc(Cl)cc5)CC4)nc(OCC(F)(F)F)n3)cc2)CC1
4. CN(C)CC1(S(=O)(=O)NC(=O)c2ccc(Nc3nc(OCC(F)(F)F)nc(N4CCN(S(C)(=O)=O)CC4)n3)cc2)CC1
5. Cc1ccc(C(=O)N2CCN(c3nc(Nc4ccc(C(=O)NS(=O)(=O)C5(CN(C)C)CC5)cc4)nc(OCC(F)(F)F)n3)CC2)cc1

1. 0.0005 to 0.1 µM
2. 0.0005 to 0.1 µM
3. 1 to 5 µM
4. 1 to 5 µM
5. 1 to 5 µM

These entries and their values trace back to patent US8765944B2.
